experiment: Apparent permeability in dog MDCK cells with low MDR1 expression
propertyName: Papp (×10⁻⁶ cm/s)
API: value field is a number in ×10⁻⁶ cm/s; no unit string.

Ask: Quick one: Papp for `C[C@@H]1CN(C(=O)[C@H](C)N2CCC(n3c(=O)[nH]c4ccccc43)CC2)C[C@@H](C)N1` ?
Result: 5.1

====

experiment: Tmax in sc dosed C57BL/6 mouse by LC-MS/MS analysis; format: ADME, organism-based; settings: in vivo
propertyName: Tmax (min)
Record the value in min, omitting the unit from your answer.

Ask: Report Tmax for `C[C@@H]1CN(C(=O)[C@H](C)N2CCC(n3c(=O)[nH]c4ccccc43)CC2)C[C@@H](C)N1` please.
Result: 26.4

====

assay: Unbound clearance in iv dosed rat administered as cassette dose; format: ADME, organism-based; conditions: in vivo
Recorded CL free, one value per entry.
State just the number; it will be interpreted in mL/min/kg.

Sample records with CL free:
compoundStructure	CL free / mL/min/kg
C[C@@H]1CN(C(=O)[C@H](C)N2CCC(n3c(=O)[nH]c4ccccc43)CC2)C[C@@H](C)N1	84
C[C@@H]1CN(C(=O)[C@H](C)N2CCC(n3c(=O)[nH]c4ccccc43)CC2)CCN1	73
C[C@@H](CN1CCC2(CC1)NC(=O)Nc1ccccc12)NC(=O)c1ccc(F)cc1	74
C[C@@H](CN1CCC2(CC1)CC(=O)Nc1ccccc12)NC(=O)c1ccc(F)cc1	42

# context switch: different compound, same CL free
Ask: Consider the compound shown here: `C[C@H]1CN(C(=O)[C@H](C)N2CCC(n3c(=O)[nH]c4ccccc43)CC2)CCN1` What is its recorded CL free?
Result: 73

====

Entries and their pIC50 values follow.
biological target: Phospholipase D1 (Homo sapiens, UniProt Q13393); assay: Inhibition of PLD1 (unknown origin) expressed in human HEK cells by immunoprecipitation assay
Sequence (Q13393 whole entry): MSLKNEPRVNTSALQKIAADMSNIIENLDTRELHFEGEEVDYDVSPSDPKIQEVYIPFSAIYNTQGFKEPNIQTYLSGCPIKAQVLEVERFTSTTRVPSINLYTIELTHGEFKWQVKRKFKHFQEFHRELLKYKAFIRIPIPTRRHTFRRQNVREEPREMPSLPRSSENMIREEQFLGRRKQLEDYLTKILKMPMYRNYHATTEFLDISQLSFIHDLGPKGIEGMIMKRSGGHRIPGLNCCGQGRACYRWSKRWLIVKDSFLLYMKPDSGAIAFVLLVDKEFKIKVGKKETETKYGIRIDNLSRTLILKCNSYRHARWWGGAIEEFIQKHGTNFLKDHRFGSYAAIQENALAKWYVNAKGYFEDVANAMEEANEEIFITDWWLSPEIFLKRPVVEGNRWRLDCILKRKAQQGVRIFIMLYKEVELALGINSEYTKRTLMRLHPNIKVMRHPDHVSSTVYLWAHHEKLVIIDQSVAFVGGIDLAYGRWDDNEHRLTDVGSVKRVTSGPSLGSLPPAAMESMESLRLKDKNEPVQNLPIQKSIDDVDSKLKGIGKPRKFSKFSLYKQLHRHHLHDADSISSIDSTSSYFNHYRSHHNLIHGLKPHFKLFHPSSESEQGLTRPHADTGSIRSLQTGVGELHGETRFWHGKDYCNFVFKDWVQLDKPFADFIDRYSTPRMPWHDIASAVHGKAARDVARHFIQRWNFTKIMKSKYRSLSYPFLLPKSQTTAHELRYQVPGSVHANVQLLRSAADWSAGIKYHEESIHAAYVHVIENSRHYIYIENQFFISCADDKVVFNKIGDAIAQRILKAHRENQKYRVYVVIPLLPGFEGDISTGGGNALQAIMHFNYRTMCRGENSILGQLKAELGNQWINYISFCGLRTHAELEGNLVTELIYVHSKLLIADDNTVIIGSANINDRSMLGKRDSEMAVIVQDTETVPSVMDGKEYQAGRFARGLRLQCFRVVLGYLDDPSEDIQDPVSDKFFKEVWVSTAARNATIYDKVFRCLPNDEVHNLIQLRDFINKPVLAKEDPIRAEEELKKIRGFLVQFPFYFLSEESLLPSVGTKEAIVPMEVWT
# pIC50 is unitless: minus log10 of the molar concentration; print number only

Ask: Lookup: pIC50 / Phospholipase D1 (Homo sapiens, UniProt Q13393) / `CC(=O)N(C)CCN1CCC(n2c(=O)[nH]c3cc(Cl)ccc32)CC1`
Result: 6.89

Ask: Which measured pIC50 belongs to `C[C@@H]1CN(C(=O)[C@H](C)N2CCC(n3c(=O)[nH]c4ccccc43)CC2)C[C@H](C)N1` , tested on Phospholipase D1 (Homo sapiens, UniProt Q13393)?
Result: 7.40

Ask: Which measured pIC50 belongs to `C[C@@H](CN1CCC2(CC1)OC(=O)NC[C@H]2c1cccc(F)c1)NC(=O)c1ccc(F)cc1` , tested on Phospholipase D1 (Homo sapiens, UniProt Q13393)?
Result: 7.66

Ask: Identify the measured pIC50 of `C[C@@H](CN1CCC(n2c(=O)oc3ccccc32)CC1)NC(=O)c1ccc(F)cc1` for Phospholipase D1 (Homo sapiens, UniProt Q13393).
Result: 5.03

====

The reader will find reported efflux ratio values listed item by item below.
test system: BCRP; assay: Efflux ratio of apparent permeability from basolateral to apical side over apical to basolateral side in dog MDCK-BCRP cells; format: ADME, cell-based, Canis lupus familiaris
Answer with a bare number; do not write a unit.

Below, each entry is followed by its recorded efflux ratio result.
compoundStructure	efflux ratio
C[C@H]1CN(C(=O)[C@H](C)N2CCC(n3c(=O)[nH]c4ccccc43)CC2)CCN1	2.3
C[C@@H]1CN(C(=O)[C@H](C)N2CCC(n3c(=O)[nH]c4ccccc43)CC2)C[C@@H](C)N1	1.2
C[C@@H](C(=O)N1CCOCC1)N1CCC(n2c(=O)[nH]c3ccccc32)CC1	1.5

Continue with the compound presented below.
Ask: State the recorded efflux ratio for this entry: `C[C@@H](C(=O)N1CCC(F)(F)C1)N1CCC(n2c(=O)[nH]c3ccccc32)CC1`
Result: 1.2
